# credit: patent US20150315188A1

biological target: Human adrenergic α2A receptor (Homo sapiens, UniProt P08913); experiment: Radioligand binding, adrenergic α2A (Protocol Group B); parameters: purchased Milipore (Millipore); conditions: 0.3 μM compound; Protocol Group B; read-out: Percentage inhibition of ligand binding, Adrenergic α2A (0.3 μM)
Sequence (P08913 whole entry): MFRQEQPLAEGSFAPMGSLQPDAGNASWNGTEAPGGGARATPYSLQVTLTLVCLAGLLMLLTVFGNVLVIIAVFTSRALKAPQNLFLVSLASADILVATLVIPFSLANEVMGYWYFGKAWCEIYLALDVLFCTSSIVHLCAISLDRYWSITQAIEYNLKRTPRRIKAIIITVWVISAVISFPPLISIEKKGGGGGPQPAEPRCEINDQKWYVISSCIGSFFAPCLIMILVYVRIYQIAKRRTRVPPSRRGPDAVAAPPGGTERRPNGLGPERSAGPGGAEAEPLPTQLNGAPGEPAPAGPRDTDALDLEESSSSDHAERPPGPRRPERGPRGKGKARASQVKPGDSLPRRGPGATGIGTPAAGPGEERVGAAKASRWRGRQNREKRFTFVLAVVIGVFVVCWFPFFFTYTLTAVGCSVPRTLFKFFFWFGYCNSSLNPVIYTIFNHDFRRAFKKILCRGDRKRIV
READOUT: inhibition at 0.3 µM (%)
Numbers only, in %.

Could I get inhibition at 0.3 µM for every one of these entries?
1. Cc1cc(Cl)c2c(c1)c1c(n2CC(C)(O)c2ccncc2)CCN2CCCC12 (single isomer, unassigned) [91a]
2. Cc1cc(C)c2c(c1)c1c(n2CC(C)(O)c2ccncc2)CCN2CCCC12 (single isomer, unassigned) [19a]
3. Cc1ccc2c(c1)c1c(n2CC(OCC2CCC2)c2ccncc2)CCN(C)C1 (single isomer, unassigned) [59a]

output:
1: 91; 2: 87; 3: 91

Provide each entry's inhibition at 0.3 µM from the list below.
1. Cc1ccc2c(c1)c1c(n2CC(OCC2CCC2)c2ccncc2)CCN2CCCC12 (single isomer, unassigned) [138a]
2. CN1CCc2c(c3cccc(Cl)c3n2CC(O)c2cccnc2)C1 (stereo not drawn) [compound 20]
3. Cc1ccc2c(c1)c1c(n2CC(O)c2ccc(C(=O)N3CCCC3)nc2)CCN(C)C1 (stereo not drawn) [compound 96]
4. CC(O)(Cn1c2c(c3cc(Cl)cc(F)c31)CN1CCCC1C2)c1ccncc1 (single isomer, unassigned) [86a]
5. CN1CCc2c(c3c(Cl)ccc(Cl)c3n2CC(O)c2cccnc2)C1 (stereo not drawn) [Compound No. 17]
6. Cc1ccc2c(c1)c1c(n2CC(OC(N)=O)c2ccncc2)CCN(C)C1 (single isomer, unassigned) [8b]
7. Cc1ccc2c(c1)c1c(n2C[C@@H](OC2CCCC2)c2ccncc2)CCN2CCC[C@H]12 [compound 82]

output:
[88, 23, -9, 11, 15, 10, 97]

I have 2 compounds here; please give me inhibition at 0.3 µM for each one.
1. Cc1ccc2c(c1)c1c(n2CC(O)c2ccc(C(=O)NC3CC3)nc2)CCN(C)C1 (stereo not drawn) [compound 55]
2. Cc1ccc2c(c1)c1c(n2CC(OCC2CCC2)c2ccncc2)CCN(C)C1 (stereo not drawn) [59b]

output:
1. 3
2. 65

Batch request: inhibition at 0.3 µM for each of the following compounds.
1. Cc1ccc2c(c1)c1c(n2CC(C)(O)c2ccc(OCC3CC3)nc2)CCN(C)C1 (stereo not drawn) [compound 56]
2. CC(O)(Cn1c2c(c3cc(Cl)cc(F)c31)C1CCCN1CC2)c1ccncc1 (single isomer, unassigned) [52a]
3. Cc1ccc2c(c1)c1c(n2CC(C)(O)c2ccnc(F)c2)CCN2CCCC12 (single isomer, unassigned) [48a]
4. OCc1ccc2c(c1)c1c(n2CC(O)c2ccncc2)CCN2CCCC12 (stereo not drawn) [compound 29]

output:
9
89
82
49

For each of the compounds below, state inhibition at 0.3 µM.
1. Cc1cc(F)c2c(c1)c1c(n2CC(C)(O)c2cccnc2)CC2CCCN2C1 (single isomer, unassigned) [61c]
2. OC(Cn1c2c(c3cc(Cl)cc(F)c31)C1CCCN1CC2)c1ccncc1 (single isomer, unassigned) [135a]

output:
41
77

* * *

biological target: Human adrenergic α2B receptor (Homo sapiens); experiment: Radioligand binding, adrenergic α2B (Protocol Group B); design: purchased Milipore (Millipore); conditions: 30 nM compound; Protocol Group B; 0.03 µM
Sequence (P18089 whole entry): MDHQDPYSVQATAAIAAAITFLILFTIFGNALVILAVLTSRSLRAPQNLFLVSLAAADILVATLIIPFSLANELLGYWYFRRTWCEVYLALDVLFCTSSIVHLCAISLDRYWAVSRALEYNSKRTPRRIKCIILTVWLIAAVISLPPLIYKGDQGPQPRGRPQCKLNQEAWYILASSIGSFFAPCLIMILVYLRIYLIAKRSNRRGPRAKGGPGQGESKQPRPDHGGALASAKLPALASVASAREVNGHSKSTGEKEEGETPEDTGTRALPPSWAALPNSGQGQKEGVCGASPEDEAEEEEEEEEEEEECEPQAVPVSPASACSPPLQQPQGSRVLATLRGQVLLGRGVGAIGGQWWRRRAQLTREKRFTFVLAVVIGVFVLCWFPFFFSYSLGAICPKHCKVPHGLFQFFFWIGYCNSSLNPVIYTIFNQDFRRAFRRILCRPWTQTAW
READOUT: Percentage inhibition of ligand binding, Adrenergic α2B (30 nM) (%)
Give bare numbers, in %.

The following compounds have reported results that may help.
{"columns": ["COMPOUND", "VALUE_REPORTED"],
 "data": [
  ["CC(O)(Cn1c2c(c3cc(F)ccc31)C1CCCN1CC2)c1cccnc1 (stereo not shown) [57b]", "−4"],
  ["Cc1cc(F)c2c(c1)c1c(n2CC(C)(O)c2ccncc2)CC2CCCN2C1 (single isomer, unassigned) [62c]", 52],
  ["Cc1ccc2c(c1)c1c(n2CC(O)c2ccccn2)CC2CCCN2C1 (single isomer, unassigned) [45b]", 7],
  ["Cc1cc2c3c(n(CC(C)(O)c4ccncc4)c2cc1Cl)CCN1CCCC31 (single isomer, unassigned) [50c]", 42]
]}

Dear reader, for each entry below, please note its Percentage inhibition of ligand binding, Adrenergic α2B (30 nM).
1. Cc1cc(C)c2c(c1)c1c(n2CC(C)(O)c2cccnc2)CCN2CCCC12 (single isomer, unassigned) [44d]
2. CCOC(Cn1c2c(c3cc(C)ccc31)CN(C)CC2)c1ccncc1 (single isomer, unassigned) [43b]
3. Cc1cc(Cl)c2c(c1)c1c(n2CC(C)(O)c2ccncc2)CCN2CCCC12 (single isomer, unassigned) [91d]

output:
1. −11
2. 89
3. 24
